Origin of measurements: ChEMBL document CHEMBL1132647

test system: Lvec; experiment: Steady-State [Ca2+] Release from Saponin-Permeabilized Lvec Cell Lines; assay type: functional, cell-based
pEC50: −log10 of the molar value.

Compound	Target of assay	pEC50
O=P(O)(O)O[C@@H]1[C@H](O)[C@H](O)[C@@H](OP(=O)(O)O)[C@H](OP(=O)(O)O)[C@H]1O (stereo in doubt; 1)	Lvec	6.61
